// provenance: the RNAGym collection of RNA variant scans (doi:10.1073/pnas.2313332121)

B1: TPR t1 (parent)
chain: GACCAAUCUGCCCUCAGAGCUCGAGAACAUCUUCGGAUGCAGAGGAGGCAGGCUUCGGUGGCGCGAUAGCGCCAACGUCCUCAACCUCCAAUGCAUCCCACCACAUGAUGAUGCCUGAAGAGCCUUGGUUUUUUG

Variants of: B1
Assay Summary: polymerase ribozyme fitness, log enrichment relative to wild type (log ratio); higher = more active; in vitro selection for triplet polymerase activity
Entries annotated with measured polymerase ribozyme fitness (log ratio)
Outcome Measure: polymerase ribozyme fitness (log ratio)

var="G10A C53G G61A A95G" outcome_measure="polymerase ribozyme fitness (log ratio)" assay_value=-0.503
var="G61C U78G" outcome_measure="polymerase ribozyme fitness (log ratio)" assay_value=-4.7
var="C12U C89G" outcome_measure="polymerase ribozyme fitness (log ratio)" assay_value=-0.883
var="G60C U106C" outcome_measure="polymerase ribozyme fitness (log ratio)" assay_value=-0.702
var="U30C C72A" outcome_measure="polymerase ribozyme fitness (log ratio)" assay_value=-2.24
var="A5C C8G U33G C97U" outcome_measure="polymerase ribozyme fitness (log ratio)" assay_value=-5.64
var="G42A A43U G52A C73U U133C" outcome_measure="polymerase ribozyme fitness (log ratio)" assay_value=-1.65
var="C13G G60U G93A C104U U129A" outcome_measure="polymerase ribozyme fitness (log ratio)" assay_value=-4.29
var="C11U U81A" outcome_measure="polymerase ribozyme fitness (log ratio)" assay_value=-2.1
var="C72U U87A" outcome_measure="polymerase ribozyme fitness (log ratio)" assay_value=-0.188
var="A5G C13U C98U G128U" outcome_measure="polymerase ribozyme fitness (log ratio)" assay_value=-3.14
var="G60C C89U C123G" outcome_measure="polymerase ribozyme fitness (log ratio)" assay_value=1.06
var="C4G C13A" outcome_measure="polymerase ribozyme fitness (log ratio)" assay_value=-3.23
